B1: CSNK1G1 (parent)
chain: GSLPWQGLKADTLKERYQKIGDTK

variants of: B1; experiment: protein stability index of a GFP-peptide fusion (GPS, HEK-293T) (PSI 1-6); higher = more stable; conditions: c terminus: a fixed tail appended;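 also: lentivirally expressed fusions sorted by FACS into six bins by GFP to DsRed ratio, PSI derived from sequencing read proportions per bin multiplied by bin number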
Classification field: enter class 1 for protein stability index values not below 4, class 0 for values below it.

See these solved cases before continuing.
VAR	ASSIGNED CATEGORY
D22A	class 0
D11A	class 0
L13K	class 1
L13R	class 1
W5H	class 1
L3P	class 0
I20R	class 1
L8P	class 1

Determine whether this variant has protein stability index no lower than 4: L3D class 1

Given the entry K9T , answer whether its protein stability index meets or surpasses 4. class 1

Quick check, protein stability index >= 4? Y17G class 1

hey, is protein stability index for this one >= 4? P4S class 1

Has R16E a recorded protein stability index greater than or equal to 4? class 1
